test system: MCF7 breast; assay: NCI tumour cell line growth inhibition, 48 h
Would you mind telling me the reported TGI of each entry?

[in] Item under review: CC(C)(CCC(C)(C)N1OC1c1ccccc1)N1OC1c1ccccc1 (configuration not stated) . Reported TGI?
[out] > 100 µM

[in] Endpoint output: TGI of N#CCCC1(CCC#N)CCCCCCCCC(CCC#N)(CCC#N)C(O)C1O (configuration not stated) . Value?
[out] > 100 µM

[in] // TGI lookup, key: `C1CSCCSCCCSCCSCCCSCCSCCCSCCSC1`
[out] > 100 µM

[in] So what does the record say about TGI for `CC(C)C[C@H](NC(=O)CCn1ccc2ccccc2c1=O)B(O)O` ?
[out] > 100 µM

[in] Query (compound): `CCC(=O)Nc1ccc(N2C(=O)/C(=C/c3ccc(OC)cc3)N=C2c2ccccc2)cc1` ; field requested: TGI
[out] > 50 µM

[in] TGI lookup needed for Cc1ccc(C2C3Cc4ccccc4C3=NN2c2ccc(S(=O)(=O)/N=c3\scc(-c4ccccc4)n3-c3ccccc3)cc2)cc1 (configuration not stated) , thanks.
[out] 33.7 µM

[in] Dear colleague, I am looking for the recorded TGI of the following compound: `c1cc(N2CCN(c3ccc(C4=NCCCN4)cc3)CC2)ccc1C1=NCCCN1`
[out] > 100 µM
